Measured values drawn from paper PMC4369186 for this set.

experimental_target: hVAChT (Homo sapiens, UniProt Q16572)
Sequence (Q16572 1-532): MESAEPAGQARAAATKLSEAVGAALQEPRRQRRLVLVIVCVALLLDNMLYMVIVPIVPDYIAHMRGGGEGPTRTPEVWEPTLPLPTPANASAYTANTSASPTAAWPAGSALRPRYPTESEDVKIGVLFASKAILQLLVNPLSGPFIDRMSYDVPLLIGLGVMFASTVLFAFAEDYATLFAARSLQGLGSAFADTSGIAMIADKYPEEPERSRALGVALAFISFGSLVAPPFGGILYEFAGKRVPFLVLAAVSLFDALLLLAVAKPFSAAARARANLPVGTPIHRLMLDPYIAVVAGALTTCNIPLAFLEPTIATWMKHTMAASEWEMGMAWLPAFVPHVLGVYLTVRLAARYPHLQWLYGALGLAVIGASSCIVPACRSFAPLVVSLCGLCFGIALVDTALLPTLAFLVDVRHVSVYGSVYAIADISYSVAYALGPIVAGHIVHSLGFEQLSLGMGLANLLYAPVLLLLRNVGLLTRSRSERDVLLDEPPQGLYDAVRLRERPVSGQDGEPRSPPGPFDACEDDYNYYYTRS
experiment_summary: Competitive binding assay with
experimental_parameters: competitive binding studies, other CNS receptor ligands
quantity_measured: inhibition of (-)-[^3H]TZ659 binding to VAChT

Sample answers from the record:
CCc1cc(Cl)c(OC)c(C(=O)NC[C@@H]2CCCN2CC)c1O [S-(-)-Eticlopride] | No inhibition
CC(C)=CCN1CC[C@]2(C)c3cc(O)ccc3C[C@H]1[C@H]2C [(+)-Pentazocine] | No inhibition
COc1ccccc1N1CCN(CC(C(=O)NC(C)(C)C)c2ccccc2)CC1 (stereo not drawn) | No inhibition
Cn1cc(-c2ccncc2)c(-c2ccc(OCc3ccc4ccccc4n3)cc2)n1 | No inhibition
COc1cc2c(cc1OC)[C@H]1C[C@@H](O)[C@H](CC(C)C)CN1CC2 | No inhibition

Now let's try a different one.
Record `COc1cc2c(cc1OC)CN(CCCCNC(=O)c1cc(C)ccc1OCCF)CC2` . Reported inhibition of (-)-[^3H]TZ659 binding to VAChT: No inhibition
